# assayOverview: Apparent permeability across apical to basolateral side in human Caco-2 cells at 2 uM pH 7.2 measured for 2 hrs by LC-MS/MS analysis
# Format: ADME, cell-based
# experimentalParameters: Caco-2, pH 7.2
measuredQuantity: Papp A→B at 2 h, 2 µM (×10⁻⁶ cm/s)
Answer with a number only, understood to be in ×10⁻⁶ cm/s.

In: Return the recorded Papp A→B at 2 h, 2 µM value; entry: CCOc1ccccc1S(=O)(=O)NC(=O)c1cc2c(OC)cc(OC)cc2o1
Out: 2.8

* * *

# assayOverview: Oral bioavailability in male Wistar rat at 1 mg/kg measured upto 24 hrs by LC-MS/S analysis
# Format: ADME, organism-based
# experimentalParameters: in vivo
measuredQuantity: bioavailability
Form field: result (number plus unit)

In: Return the recorded bioavailability value; entry: CN(C)c1ccc2cc(C(=O)NS(=O)(=O)c3ccccc3-c3ccccc3)oc2c1
Out: 60%

Sourced from ChEMBL document CHEMBL6092206
